- Tested on: SK-OV-3 ovarian
- METHOD: NCI tumour cell line growth inhibition, 48 h
ATTRIBUTE_MEASURED: GI50

// solved cases for GI50 follow
> print(dat)
                           smiles.structure    tested.system  test.value
1  CCOC(=O)c1c(NC(=O)c2cccc(C(F)(F)F)c2)sc2c(CN(C)C)c(O)ccc12  SK-OV-3 ovarian     19.1 µM
2  N=C(N)c1ccc2nc(-c3cc(CC(=O)N[C@@H](CC(=O)O)C(=O)O)cc(-c4cc(S(N)(=O)=O)ccc4O)c3O)[nH]c2c1  SK-OV-3 ovarian    > 100 µM
3  CCn1c(=O)c2c(=O)c3c4c(oc3oc2c2ccccc21)C(=O)c1ccccc1C4=O  SK-OV-3 ovarian    > 100 µM
4  Cc1[nH]c(/C=C2\C(=O)Nc3ccccc32)c(C)c1CCC(=O)O  SK-OV-3 ovarian     19.5 µM
5  COc1ccc(CCNC(=O)c2ccc(NC3=C(Cl)C(=O)N(Cc4ccccc4)C3=O)cc2)cc1OC  SK-OV-3 ovarian     35.8 µM

Field: next compound
Recorded result, `C=C1C(=O)O[C@H]2[C@H]1CC/C(COC(=O)/C=C\C(=O)NCc1ccc(Cn3c(=O)sn(CCCC)c3=O)cc1)=C\CC[C@@]1(C)O[C@@H]21` , GI50: 3.33 µM
